Target System: ScCyk3
Run Description: SPOT peptide array binding signal intensity (averaged, normalized) (arbitrary units (background-subtracted, floor 0; scale differs between SH3 domains)); higher = stronger binding of the SH3 domain to the peptide
Measured Metric: SPOT peptide array binding signal intensity
Answers are plain numbers.

GKKVRPLLVLLLSRA
41
NRPAIRIPSLKKPAL
20

Shifting focus to the binder that follows.
I would be grateful if you could share the reported SPOT peptide array binding signal intensity for GKFIPSRPAPKPPSS .
2
